All figures here come from the supplement of paper PMC12494721.

# Tested on: Klebsiella aerogenes DSM 30053
# ASSAY_COMMENT: fold change of Cadaverine concentration vs plate DMSO controls (fold change (ratio)); higher = more amine produced, active = hit call of the paper (significant change in both replicates, either direction)
# APPLIED_CONDITIONS: 20 µM; incubation time: 27 h, anaerobic, 37 °C
Where a name gives a salt, the structure may show the parent alone.
OBSERVABLE: fold change of Cadaverine concentration
Enter the number alone.

Past entries and their recorded results:
COc1ccc(CN2CCNCC2)c(OC)c1OC [Trimetazidine dihydrochloride] :: 0.971
O=[N+]([O-])O[C@H]1CO[C@H]2[C@@H]1OC[C@H]2O[N+](=O)[O-] [Isosorbide dinitrate] :: 1.02
CC1=NNC(=O)N(/N=C/c2cccnc2)C1 :: 0.99
COc1cc([C@@H]2c3cc4c(cc3[C@H](O)[C@H]3COC(=O)[C@H]23)OCO4)cc(OC)c1OC :: 1.02

Which fold change of Cadaverine concentration is listed for O=c1c2ccccc2[se]n1-c1ccccc1 ?
0.984

* * *

# Tested on: Clostridium sporogenes DSM 1664
# ASSAY_COMMENT: growth (OD595) fold change vs plate DMSO controls (fold change (ratio)); higher = more growth
# APPLIED_CONDITIONS: 20 µM; incubation time: 27 h, anaerobic, 37 °C
OBSERVABLE: growth
Enter the number alone.

Past entries and their recorded results:
C1=Cc2cccc3cccc1c23 :: 0.849
CCNC(=O)NC(=O)/C(C#N)=N/OC :: 1.09
NC(=O)OCCCc1ccccc1 [Phenprobamate] :: 0.892

Which growth is listed for CC(=O)OCC(=O)[C@H]1CC[C@H]2[C@@H]3CC[C@H]4C[C@H](O)CC[C@]4(C)[C@H]3C(=O)C[C@]12C [Alfadolone acetate] ?
0.985

Try N#Cc1c[nH]cc1-c1cccc2c1OC(F)(F)O2 next.
0.873

Try C[C@]12CC[C@H](O)C[C@@H]1CC[C@@H]1[C@@H]2CC[C@]2(C)C(=O)CC[C@@H]12 [Epiandrosterone] next.
1.01

Try COc1cc(C)c(C(=O)c2c(OC)ccc(Br)c2C)c(OC)c1OC next.
1.04

Try CC(C)N(CCC(C(N)=O)(c1ccccc1)c1ccccn1)C(C)C (configuration not stated) [Disopyramide] next.
1.08

* * *

# Test system: Ruminococcus gnavus DSM 108212
# ASSAY_COMMENT: growth (OD595) fold change vs plate DMSO controls (fold change (ratio)); higher = more growth
# APPLIED_CONDITIONS: 20 µM; incubation time: 27 h, anaerobic, 37 °C
Counter-ions that a name gives are not always drawn.
OBSERVABLE: growth
Enter the number alone.

Past entries and their recorded results:
CCN(CC)c1nc(C)cc(OP(=S)(OC)OC)n1 :: 1.13
COc1cc(C)c(C(=O)c2c(OC)ccc(Br)c2C)c(OC)c1OC :: 1.1
CC[C@@]1([C@@H]2O[C@@H]([C@H]3O[C@@](O)(CO)[C@H](C)C[C@@H]3C)C[C@@H]2C)CC[C@H]([C@]2(C)CC[C@]3(C[C@H](O)[C@@H](C)[C@@H]([C@@H](C)[C@@H](OC)[C@H](C)C(=O)O)O3)O2)O1 [Monensin sodium salt] :: 0.204
c1cc2c3c(cccc3c1)CC2 [Acenaphthene] :: 0.995
CC(C)OC(=O)C(C(=O)OC(C)C)=C1SCCS1 :: 1.08

GET /values?readout=growth&system=Ruminococcus gnavus DSM 108212&item= CC(C)(C)NCC(O)c1cc(Cl)c(N)c(Cl)c1 (stereo not drawn) [Clenbuterol hydrochloride]
1.13

Try CCNC1(c2cccs2)CCCCC1=O (stereo not drawn) [Tiletamine hydrochloride] next.
1.15

Try O=C(O)C(F)(F)C(F)(F)C(F)(F)C(F)(F)C(F)(F)C(F)(F)C(F)(F)F [PFOA (Perfluorooctanoic acid)] next.
0.985

* * *

# System: Klebsiella aerogenes DSM 30053
# ASSAY_COMMENT: growth (OD595) fold change vs plate DMSO controls (fold change (ratio)); higher = more growth
# APPLIED_CONDITIONS: 20 µM; incubation time: 27 h, anaerobic, 37 °C
OBSERVABLE: growth
Enter the number alone.

Past entries and their recorded results:
CC(CCc1ccccc1)NC(C)C(O)c1ccc(O)cc1 (stereo unspecified) :: 1.21
COc1ccc(CCN2CCC(Nc3nc4ccccc4n3Cc3ccc(F)cc3)CC2)cc1 :: 1.01
CCC1(C)CC(=O)NC(=O)C1 [Bemegride] :: 1.04
Fc1ccc(Oc2ccnc3cc(Cl)cc(Cl)c23)cc1 :: 1.02
O=C1C2CC=CCC2C(=O)N1SC(Cl)(Cl)Cl (stereo unspecified) :: 0.972

Which growth is listed for C[N+]1(C)CCCC(OC(=O)C(O)(c2ccccc2)c2ccccc2)C1 (stereo unspecified) [Mepenzolate bromide] ?
1.02

Try CCCC1COC(Cn2cncn2)(c2ccc(Cl)cc2Cl)O1 (stereo unspecified) next.
0.987

* * *

# Test system: Ruminococcus gnavus DSM 108212
# ASSAY_COMMENT: growth (OD595) fold change vs plate DMSO controls (fold change (ratio)); higher = more growth
# APPLIED_CONDITIONS: 20 µM; incubation time: 27 h, anaerobic, 37 °C
Counter-ions that a name gives are not always drawn.
OBSERVABLE: growth
Enter the number alone.

Which growth is listed for CN(C)C(=O)Oc1cc(OC(=O)N(C)C)cc(C(O)CNC(C)(C)C)c1 (centres undefined) [Bambuterol hydrochloride] ?
1.18

Try Fc1ccc(Oc2ccnc3cc(Cl)cc(Cl)c23)cc1 next.
1.04

Try Oc1ccc(Cc2ccc(O)cc2)cc1 next.
1.03

Try CN1C[C@H](C(=O)N[C@]2(C)O[C@@]3(O)[C@@H]4CCCN4C(=O)[C@H](Cc4ccccc4)N3C2=O)C[C@@H]2c3cccc4[nH]cc(c34)C[C@H]21 [Dihydroergotamine tartrate] next.
0.827

* * *

# Tested on: Klebsiella aerogenes DSM 30053
# ASSAY_COMMENT: fold change of Histamine concentration vs plate DMSO controls (fold change (ratio)); higher = more amine produced, active = hit call of the paper (significant change in both replicates, either direction)
# APPLIED_CONDITIONS: 20 µM; incubation time: 27 h, anaerobic, 37 °C
Where a name gives a salt, the structure may show the parent alone.
OBSERVABLE: fold change of Histamine concentration
Enter the number alone.

Past entries and their recorded results:
C=CCN1CC[C@]23c4c5ccc(O)c4O[C@H]2C(=O)CC[C@@]3(O)[C@H]1C5 [Naloxone hydrochloride] :: 1.04
CC(C)N1C(=O)N(c2ccccc2)CS/C1=N\C(C)(C)C :: 0.967
CC1(C)C(C=C(Cl)Cl)C1C(=O)OC(C#N)c1ccc(F)c(Oc2ccccc2)c1 (mixture of isomers) :: 1.09
CN(C)[C@@H]1C(=O)C(C(N)=O)=C(O)[C@@]2(O)C(=O)C3=C(O)c4c(O)ccc(Cl)c4[C@@](C)(O)[C@H]3C[C@@H]12 [Chlortetracycline hydrochloride] :: 0.0679
C[C@@H]1C[C@@H]([C@H](O)CC2CC(=O)NC(=O)C2)C(=O)[C@@H](C)C1 [Cycloheximide] :: 1.08

Which fold change of Histamine concentration is listed for CC(N)C(O)c1ccccc1 (stereo not given) [Phenylpropanolamine hydrochloride] ?
1.1

Try CCc1cc(C)cc(CC)c1-c1c(OC(=O)C(C)(C)C)n2n(c1=O)CCOCC2 next.
0.979

Try CON(C)C(=O)Nc1ccc(Cl)c(Cl)c1 next.
0.924

Try CCCN(CCC)C(=O)SCc1ccccc1 next.
1.04

Try CCN(CC)N=O next.
0.928

Try CC(C)CC(C)c1sccc1NC(=O)c1cn(C)nc1C(F)(F)F (stereo not given) next.
0.988

Try O=S(=O)(c1ccc(O)cc1)c1ccc(O)cc1 next.
0.949

* * *

# Test system: Klebsiella aerogenes DSM 30053
# ASSAY_COMMENT: fold change of Cadaverine concentration vs plate DMSO controls (fold change (ratio)); higher = more amine produced, active = hit call of the paper (significant change in both replicates, either direction)
# APPLIED_CONDITIONS: 20 µM; incubation time: 27 h, anaerobic, 37 °C
Structures can show the parent of a compound that is named as a salt.
// reported fold change of Cadaverine concentration per item
Enter the number alone.

Which fold change of Cadaverine concentration is listed for O=c1[nH]c2ccccc2n1C1CCN(CCCC(c2ccc(F)cc2)c2ccc(F)cc2)CC1 [Pimozide] ?
0.995

Try CC(=O)OC1CN2CCC1CC2 (stereo not given) [Aceclidine hydrochloride] next.
1.02

Try CCn1cc(C(=O)O)c(=O)c2cc3c(cc21)OCO3 [Oxolinic acid] next.
0.976

Try CC1COC(Cn2cncn2)(c2ccc(Oc3ccc(Cl)cc3)cc2Cl)O1 (stereo not given) next.
0.995

Try COC(=O)NC(=S)Nc1ccccc1NC(=S)NC(=O)OC next.
1.01
